Ref: PubChem BioAssay (NCI)

- Test system: MDA-MB-435
- method: NCI tumour cell line growth inhibition, 48 h
Measured TGI, listed per entry.

- N#CC1(Nc2ccc(-c3ccc(NC4(C#N)CCCC4)cc3)cc2)CCCC1: > 100 µM
- NC(=O)C(=CNC(=S)Nc1ccc(Cl)c(Cl)c1)C(N)=O: > 100 µM
- COC1=CC(=O)c2c(cc(COP(=O)(OCC3OC(n4cc(F)c(=O)[nH]c4=O)CC3O)N(C)CCCCCl)n2C)C1=O (stereo unspecified): 5 µM
- O=C1C(=O)c2ccccc2C(O)=C1CCCc1ccc(C2CCCC2)cc1: 38.8 µM
- N#CCCN(CCC#N)c1ccc(C(N=Nc2ccccc2)=Nc2ccc(Cl)cc2)cc1: > 100 µM
- O=S(=O)(c1ccc(Br)cc1)N1CCN(S(=O)(=O)c2ccc(Br)cc2)CC1: > 100 µM

Short answer please: TGI, MDA-MB-435, entry COc1ccc(P2(=S)SP(=S)(c3ccc(Cl)cc3)S2)cc1 (stereo unspecified)
> 100 µM

Observed TGI on MDA-MB-435 for Cc1cccc2nc3cccc(C(=O)NCCNCCNCCNC(=O)c4cccc5nc6cccc(C)c6nc45)c3nc12 , please.
1.41 µM

====

- Test system: LXFL 529 NSCLC
- method: NCI tumour cell line growth inhibition, 48 h
measurement.name: TGI (µM)
// return numeric value only (unit: µM, not printed)

• Cc1cc2nc3ccc(=[N+](C)C)cc-3sc2cc1N = 18.1
• CCOC(=O)CSc1nnc(CSc2nc(-c3ccccc3)c(-c3ccccc3)[nH]2)n1-c1ccccc1 = 42.4
• Cn1c2ccccc2c(=O)c2c(O)cc3c(c21)CC(C1(C)CO1)O3 (configuration not stated) = 1.5
• COC(=O)C1=CC2CC1C(S(=O)(=O)c1ccccc1)C2S(=O)(=O)c1ccccc1 (configuration not stated) = 18.6

Continue with the next compound.
Tell me the measured TGI of C/C(=N\NC(=S)N1CCN(C2CCCCCC2)CC1)c1ccccn1 , please.
2.67

====

- System: IGROV1 ovarian
- method: NCI tumour cell line growth inhibition, 48 h
measurement.name: TGI

- O=C(O)CCNC(=O)c1cc(N(CCBr)CCBr)c([N+](=O)[O-])cc1[N+](=O)[O-]: > 100 µM
- COc1ccc2c(Cc3c4ccccc4cc4ccccc34)cncc2c1O: 11 µM
- CSc1ccc(OCC2OC2O)cc1 (stereo not drawn): > 100 µM
- CC(C)=CCC1=C(OCC(=O)O)C(=O)c2ccccc2C1=O: > 100 µM
- CC(=O)C=NCC(=O)O: > 100 µM
- COC(=O)c1ccc(NCc2c(O)ccc(O)c2Br)cc1Cl: 28.7 µM
- CC(C)COC(=O)OC(=O)c1ccc(N(C)Cc2cnc3nc(N)nc(N)c3n2)cc1: > 100 µM

Would you kindly share the measured TGI for COC(=O)C1=CC2CC1C(S(=O)(=O)c1ccccc1)C2S(=O)(=O)c1ccccc1 (stereo not drawn) ?
98.9 µM

====

- Test system: SN12C renal
- method: NCI tumour cell line growth inhibition, 48 h
measurement.name: TGI

Known TGI results, listed for orientation:
- O=C1CCCC(=O)N1n1c(Cc2ccccc2)n[nH]c1=O: > 100 µM
- c1ccc(-c2nnc(SCc3c[nH]c4ccccc34)n2-c2ccccc2)cc1: > 100 µM
- CC1(C)OCC(C2OC(OC(=O)c3ccc([N+](=O)[O-])cc3)C3OC(C)(C)OC23)O1 (centres undefined): > 100 µM
- CC(=O)[CH-]C(=O)c1ccccc1.CC(=O)[CH-]C(=O)c1ccccc1.CC1(C)OCC(C2OC3OC(C)(C)OC3C2[O-])O1.CC1(C)OCC(C2OC3OC(C)(C)OC3C2[O-])O1.[Ti+4] (centres undefined): 43.4 µM
- CC(=O)OC12c3ccccc3-c3ccccc3C1C(C(=O)O)C2(Cl)C(=O)O (centres undefined): > 10 µM
- COc1cc2cc(C(=O)N3CC(CCl)c4c3cc(NCCN)c3ccccc43)[nH]c2c(OC)c1OC (centres undefined): < 0.017 µM
- NC1=NN(c2ccccc2)C(=O)C1/C(=N\NC(=O)c1cc2ccccc2cc1O)C(=O)Nc1cccc(C(F)(F)F)c1 (centres undefined): > 100 µM
- CN1C[C@H]2[C@@H](C1=O)[C@H](c1ccccc1)ON2C: > 100 µM

May I ask what TGI has been recorded for COc1c2c(cc3c1OCO3)C13C=CC(OC)CC1N(CC3)C2 (centres undefined) ?
> 100 µM

Look at this compound and give its reported TGI. N#CC(Nc1cccc(C(F)(F)F)c1)c1ccccc1C(F)(F)F (centres undefined)
17.9 µM

Give its TGI value. Item: C/C(=N\NS(=O)(=O)c1ccc(C)cc1)c1cc2ccccc2n1C
57.7 µM

Would you kindly share the measured TGI for Cc1ccc(C2SCC(=O)N2c2ccc(-c3ccc(-n4c(-c5ccccc5)nc5ccccc5c4=O)cc3)cc2)cc1 (centres undefined) ?
> 100 µM

Any idea what its TGI is? The compound is Nc1ccccc1NC(=O)c1ccc(CN2CCC/C(=C\c3ccccn3)C2=O)cc1
> 100 µM

Given the entry O=C(O)CCNC(=O)c1cc(N(CCBr)CCBr)c([N+](=O)[O-])cc1[N+](=O)[O-] , report its measured TGI.
> 100 µM

Quick check: TGI of C=C1C(=O)O[C@@H]2[C@H]1CCC(C)=C1C=CC(=O)[C@]12C ?
29.3 µM

// lookup TGI for CC(C)(C)OC(=O)NCCC(=O)NC1(c2cc3ccccc3s2)CCCCC1
34.3 µM

Look up TGI: c1cc2nnc1SCCCSc1ccc(nn1)SCCCSc1ccc(nn1)SCCCS2
> 100 µM

What value of measured TGI is listed for Cc1cc(Cl)ccc1NC(=O)CCCC(=O)C1CCC/C1=N\NC(=O)CC#N (centres undefined) ?
> 100 µM

Query: TGI; subject: COc1cc2nc(-c3ccc(Cl)cc3)cc(OCCCN3CCCC3)c2cc1OC
13.7 µM

Requested field: TGI. Item: COC1(OC)N=C(N)C2(C#N)C3(C(=O)N(C(C)C)N=C3C)C12C#N (centres undefined)
> 100 µM

Fill blank: measured TGI of the compound CCOC(=O)NC(C(=O)OCC)(N1CCN(c2cc3c(cc2F)c(=O)c(C(=O)O)cn3CC)CC1)C(F)(F)F (centres undefined) is ____.
> 100 µM

# lookup: TGI of CCCCCCCNC(P(=O)(O)O)P(=O)(O)O
> 100 µM
